# Tested on: T1, HCV bt-151-171 (Peptide 3, HCVc 151-171) (Hepatitis C virus (numbering per HCV-1), biotin (carboxy-terminal per; N-terminal per))
# T1 peptide: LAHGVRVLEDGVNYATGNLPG
# Assay explanation: EIA, captured mAb + biotin peptide
Observable: Reactivity (OD 492 nm) (OD units)
Quick note: give the figure in OD units, leave out the unit.

Data point: HCV 208B-1096 (antibody, V domains shown) VH: QVQLQQSGAGLAKPGASVKMSCKASGYTFTANKMHWAKQRPGQGLEWIGYIDPSSGYTEYNHKIQYKATLTADTSSSTAYMQLSTLTFEDSAVYYCTNFAYWGQGTLVTVSA VL: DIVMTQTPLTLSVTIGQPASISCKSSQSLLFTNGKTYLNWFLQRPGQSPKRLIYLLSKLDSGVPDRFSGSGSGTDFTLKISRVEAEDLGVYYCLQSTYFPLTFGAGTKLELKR ; Reactivity (OD 492 nm) = 3.56

Now for another entry.
Consider HCV 208A-422 (antibody, V domains shown) VH: DVQLQESGPGLVNPSQSLSLTCSVTGYSITSGYYWIWIQQSPGNKLEWMGYIKYDGGNNYSPSLKNRISIARDTSKNQCFLKLNSVTIEDTATYYCTRGSDSFDYWGQGTTLTVSS VL: DIVLTQSPASLAVSLGQRAIISCKASQSVSFAGTNLMHWYQQKPGQQPKLLIYRASNLETGVPTRFSGSGSRTDFTLNIHPVEEDDAATYYCQQSREYYTFGGGTKLEIKR . Its measured Reactivity (OD 492 nm) is 0.1
